These data points were gathered from the supplement of paper PMC10646978.

tested on: RAW-Dual (murine macrophage reporter line); test: NF-kB reporter (SEAP) activity fold change vs agonist alone; higher = enhanced NF-kB activity; settings: modulator concentration 10 µM; agonist: LPS 0.1 ug/mL
The entries below are paired with their reported NF-kB reporter.

# smiles.structure, NF-kB reporter
rows = [
    ("O=C(NCCN1CCOCC1)c1ccc(F)cc1", 0.995),
    ("Cl.NCCCC[C@H](N)C(=O)O", 0.949),
    ("CC(C)n1cnc(S(=O)(=O)N2CCC(S(=O)(=O)Cc3ccccc3)CC2)c1", 0.891),
    ("O=C(OCCN1CCCCC1)c1ccc(O)cc1", 1.06),
    ("CCCCCCCC(=O)N[C@H](CN1CCCC1)[C@H](O)c1ccc2c(c1)OCCO2", 1.03),
    ("NC(=O)CSc1nc(O)cc(=O)n1-c1ccccc1F", 1.06),
    ("N=C(N)Nc1nc(CSCCC(=N)NS(N)(=O)=O)cs1", 0.992),
]

---

The entries below are paired with their reported viability score.
tested on: RAW-Dual (murine macrophage reporter line); assay: viability score (confluency relative to resting cells, overnight) (fraction); higher = more viable, active = viable (0.7 or more); conditions: modulator concentration 10 µM
measurement.kind: viability score

# compound, assay.value
measured = [
    ("CN1CCC(COc2cnc(-c3cccc(Cn4nc(-c5cccc(C#N)c5)ccc4=O)c3)nc2)CC1", 0.625),
    ("CCS(=O)(=O)N1N=C(c2ccc(NS(C)(=O)=O)cc2)CC1c1ccccc1 (stereo not given)", 1.02),
    ("O=C(Nc1nc(CC(=O)N2CCc3ccccc3C2)cs1)c1ccc(Cl)cc1", 1.01),
    ("Cc1ccccc1C(OCCN(C)C)c1ccccc1.O=C(O)CC(O)(CC(=O)O)C(=O)O (stereo not given)", 0.981),
    ("Cl.Cn1c(=N)n(CC(O)c2ccco2)c2ccccc21 (stereo not given)", 0.992),
    ("Clc1ccc2c(c1)CCc1cccnc1C2=C1CCNCC1", 0.36),
    ("O=C1[C@H](CC[C@H](O)c2ccc(F)cc2)[C@@H](c2ccc(O)cc2)N1c1ccc(F)cc1", 0.97),
    ("Cc1cccc(NC(=O)CSc2nc(N3CCCCC3)nc3ccccc23)c1", 0.993),
    ("Cn1ccc(C(=O)Nc2nc(C(C)(C)C)cs2)n1", 0.675),
    ("FC(F)(F)c1ccc(CNc2ccc(Cc3c[nH]c4ncc(Cl)cc34)cn2)cn1", 0.978),
]

---

tested on: RAW-Dual (murine macrophage reporter line); experiment: IRF reporter (Lucia luciferase) activity fold change vs agonist alone; higher = enhanced IRF activity; settings: modulator concentration 10 µM; agonist: LPS 0.1 ug/mL
Classification field: t = IRF reporter at or over 1; f = IRF reporter under 1.

# molecule, class
records = [
    ("CCCCCn1c(=O)[nH]c2cc(C(=O)N3CCN(C(=O)OCC)CC3)ccc2c1=O", "t"),
    ("CC1=CCC(C2Nc3ccccc3-c3nnc(SCc4ccc(C)cc4)nc3O2)CC1 (stereo unspecified)", "t"),
    ("Cc1cncc(CN2CCC(=C3c4ccc(Cl)cc4CCc4cccnc43)CC2)c1.O=C(O)/C=C/C(=O)O", "f"),
    ("OC(Cn1cncn1)(Cn1cncn1)c1ccc(F)cc1F", "t"),
    ("CN(C)c1nc(CNC(=O)c2cnn(-c3ccccc3)n2)nc(N2CCCC2)n1", "t"),
    ("Cc1[nH]c(/C=C2\\C(=O)Nc3ccccc32)c(C)c1CCC(=O)O", "f"),
    ("COc1cc(NC(=O)COc2cc(C)c(Cl)c(C)c2)cc(OC)c1", "t"),
    ("COC(CNS(=O)(=O)Cc1ccccc1)c1ccc(Cl)s1 (stereo unspecified)", "t"),
    ("COc1ccc(Cl)cc1NS(=O)(=O)c1c(C)cc(C)cc1C", "t"),
    ("CC(=NN1CCN(Cc2cccc3ccccc23)CC1)c1ccc(Cl)cc1", "t"),
    ("CCCCCCc1ccc(O)cc1O", "t"),
]

---

The entries below are paired with their reported IRF reporter.
test system: RAW-Dual (murine macrophage reporter line); assay: IRF reporter (Lucia luciferase) activity fold change vs agonist alone; higher = enhanced IRF activity; settings: modulator concentration 10 µM; agonist: LPS 0.1 ug/mL

# compound, IRF reporter
data = [
    ("Nc1nc2ccc(OC(F)(F)F)cc2s1", 1.15),
    ("Cc1cc(C)c(NC(=O)C2C3CCC4C(CCC32)C4(Cl)Cl)c(C)c1 (stereo not drawn)", 1.61),
    ("Clc1cccc(C=Nc2ccc(N=Cc3cccc(Cl)c3Cl)cc2)c1Cl", 1.05),
    ("CCOC(=O)C1=C(C)NC(C)=C(C(=O)OCC)C1c1cccs1", 1.09),
    ("Cl.Nc1c2c(nc3ccccc13)CCCC2", 0.806),
    ("COc1cccc(O)c1O", 0.422),
    ("COC(=O)C1=C(C)NC(C)=C(C(=O)OC(C)(C)CN(C)CCC(c2ccccc2)c2ccccc2)C1c1cccc([N+](=O)[O-])c1.Cl (stereo not drawn)", 1.69),
    ("Cc1oncc1C(=O)NCc1cc(C2CC2)n(C)n1", 0.982),
    ("CCOc1ccccc1OCCCCOc1cccc(Cl)c1", 1.21),
    ("N#Cc1c(N=Cc2ccc(Cl)cc2)sc2c1CCCC2", 1.17),
    ("CC[C@H](C)C(=O)O[C@H]1CCC=C2C=C[C@H](C)[C@H](CC[C@@H]3C[C@@H](O)CC(=O)O3)[C@H]21", 1.01),
    ("OCC(S)CS (stereo not drawn)", 0.84),
    ("CCOc1ccc(N2CCN(CC(=O)O)C2=O)cc1", 0.968),
    ("Nc1ncnc2c1ncn2C1OC(CO)C(O)C1O (stereo not drawn)", 1.2),
    ("c1ccc(OCc2nnc(-c3ccccc3)o2)cc1", 0.937),
    ("CC1=NN(c2ccc(C(=O)O)cc2)C(=O)C1=Cc1ccc(-c2cc(C)c(C)cc2[N+](=O)[O-])o1", 0.976),
    ("Cc1cccc(N(CC(=O)Nc2ccc3c(c2)OCO3)S(C)(=O)=O)c1", 1.19),
    ("COC(=O)COc1ccc2oc(=O)cc(-c3cc4cccc(OC)c4o3)c2c1", 0.872),
    ("CCN(CC)CCN1C(=O)C(O)=C(C(=O)c2ccc(C)cc2)C1c1ccccc1 (stereo not drawn)", 0.999),
    ("Cc1ccc(OCCSc2nc3ccccc3c(=O)[nH]2)cc1C", 1.03),
    ("CC(=NOCON=C(C)c1ccc(F)cc1F)c1ccc(F)cc1F", 1.39),
    ("CN(C)C1C(O)=C(C(N)=O)C(=O)C2(O)C(O)=C3C(=O)c4c(O)cccc4C(C)(O)C3CC12.Cl (stereo not drawn)", 0.937),
    ("Cl.Cl.O=C(O)COCCN1CCN(C(c2ccccc2)c2ccc(Cl)cc2)CC1 (stereo not drawn)", 1.17),
]

---

tested on: RAW-Dual (murine macrophage reporter line); assay: NF-kB reporter (SEAP) activity fold change vs agonist alone; higher = enhanced NF-kB activity; details: modulator concentration 10 µM; agonist: LPS 0.1 ug/mL

# compound, NF-kB reporter
records = [
    ("COc1ccc(CNC23CC4CC(CC(C4)C2)C3)cc1OC", 0.899),
    ("Oc1ccc(C=Cc2cc(O)cc(O)c2)cc1", 0.848),
    ("NS(=O)(=O)c1ccc(C(=O)O)cc1", 0.94),
    ("O=S(=O)(N=Cc1c(O)ccc2ccccc12)c1cccs1", 1),
    ("O=C(c1cc2ccccc2o1)N1CC(N2C(=O)CCC2=O)C1", 0.957),
    ("O=C(NCC1CCCO1)c1[nH]nnc1-c1ccc(F)cc1 (stereo unspecified)", 0.996),
    ("CCN(CC)c1ccc2cc(-c3nnc(NCc4ccc(F)cc4)s3)c(=O)oc2c1", 0.955),
    ("CC(=O)N1CC(C(=O)Nc2ccc(Br)c(C)c2)C1", 0.996),
    ("O=C(CC1CC1)N1CCN(c2cc(C(F)(F)F)ncn2)CC1", 0.963),
    ("COC(=O)C1=C(C)NC(C)=C(C(=O)O[C@@H]2CCCN(Cc3ccccc3)C2)[C@@H]1c1cccc([N+](=O)[O-])c1 [Prestw-1766]", 0.731),
    ("Cc1ccc(C23CC4CC(CC(CN)(C4)C2)C3)cc1C.Cl", 0.309),
    ("COc1c(C)c2c(c(O)c1CC=C(C)CCC(=O)O)C(=O)OC2", 0.118),
    ("C=CCn1c(-c2ccc(OC)cc2)cnc1SCC(=O)N1CCc2ccccc21", 1.06),
    ("Cc1ccc(C)c(C(=O)c2ccccc2NC(=O)c2ccccn2)c1", 0.85),
    ("CC(C)c1noc(CN2CCC(n3nc(C(F)(F)F)n(C)c3=O)CC2)n1", 1.11),
    ("CC1CCc2cc(F)cc3c(=O)c(C(=O)O)cn1c23 (stereo unspecified)", 1.01),
    ("CN(C)CCCN1c2ccccc2Sc2ccc(Cl)cc21 [Prestw-64]", 1.1),
    ("CC1CC2(NC(=O)NC2=O)C(C)CN1C (stereo unspecified)", 1.01),
    ("Oc1ccc(-c2cnc(-c3ccc(O)cc3)nc2)cc1", 0.965),
    ("COc1ccccc1Cn1c(SC)nc2c(-c3ccccc3)c[nH]c2c1=O", 0.889),
    ("COc1nc(C)cnc1NS(=O)(=O)c1cccnc1-c1ccc(-c2nnco2)cc1", 0.98),
    ("CCOC(=O)[C@H](CCc1ccccc1)N[C@@H](C)C(=O)N1CCC[C@H]1C(=O)O.O=C(O)/C=C\\C(=O)O", 1.01),
    ("CCC1OC(=O)C(C)C(OC2CC(C)(OC)C(O)C(C)O2)C(C)C(OC2OC(C)CC(N(C)C)C2O)C(C)(O)CC(C)CN(C)C(C)C(O)C1(C)O (stereo unspecified)", 1.1),
    ("COc1ccc2cc(Br)ccc2c1CC(N)=O", 1.07),
    ("O=C(CC12CC3CC(CC(C3)C1)C2)N1CCCCC1", 0.99),
    ("O=C(CCn1c(=O)oc2ccccc21)Nc1ccncc1", 1.04),
    ("NC(=O)COc1ccc(Nc2nnc(-c3ccccc3)c3ccccc23)cc1", 0.806),
    ("Nc1ccc(S(N)(=O)=O)cc1", 0.993),
    ("CCc1ccc2nc(NCCCN3CCOCC3)sc2c1", 1.02),
    ("COc1ccc(CN(CCN(C)C)c2ccccn2)cc1 [Prestw-289]", 1.08),
    ("CC12CC3CC(C)(C1)CC(N)(C3)C2 [Prestw-978]", 0.95),
    ("CN1CC[C@H](c2c(O)cc(O)c3c(=O)cc(-c4ccccc4Cl)oc23)[C@H](O)C1", 0.0512),
    ("COc1ccc(OC)c(Nc2nc(-c3c(C)nc4ccccn34)cs2)c1", 1.45),
    ("CCS(=O)(=O)N1CCC(Oc2cc(C)nc(C)n2)CC1", 0.996),
    ("Cc1cn[nH]c1", 0.0449),
    ("OC1C=C2CCN3Cc4cc5c(cc4C(C1O)C23)OCO5 (stereo unspecified)", 0.352),
    ("N#Cc1c(-n2ncnc2-c2cccc([N+](=O)[O-])c2)sc2c1CCCC2", 1.05),
    ("CCN(CC)c1ccc(C=Nn2nnnc2N)c(O)c1", 0.869),
    ("O=C(O)c1cc2nc(-c3ccc(Cl)c(Cl)c3)cc(C(F)(F)F)n2n1", 1.09),
    ("CCOc1ccc2c(c1)C(c1ccccc1C(F)(F)F)CC(=O)N2 (stereo unspecified)", 1.05),
    ("O=C(CSC1CCCCC1)Nc1ccc(Br)cc1", 0.949),
    ("Cn1nc(CNC(=O)c2cccc3ccccc23)cc1C1CC1", 0.852),
    ("N=C1NC(=O)C(=Cc2ccc(-c3cccc(Cl)c3)o2)S1", 0.695),
    ("COc1cc2c(Oc3ccc4[nH]c(C)cc4c3F)ncnc2cc1OCCCN1CCCC1", 1.03),
    ("CC1CCN(C2CC(=O)N(c3ccc(S(=O)(=O)N4CCOCC4)cc3)C2=O)CC1 (stereo unspecified)", 1.02),
    ("CCNc1nc(S)nc(NC(C)C)n1", 1.03),
]
